System: Rhizoctonia solani AG-1
Test: Fungicidal activity against Rice Sheath Blight (RSB) disease
Details: Rice Sheath Blight; concentration 10 ppm
measure: RSB (Fungicidal Activities, C.V.) (%)
Report the value in % with no unit label.

Example compounds with recorded RSB (Fungicidal Activities, C.V.):
compound_structure=CON=C(C(=O)OC)c1ccccc1CON=C(C)c1cccc(OC(F)=Cc2ccc(C)c(C)c2)c1 tested_target="Rhizoctonia solani AG-1" quantitative_result=43
compound_structure=CNC(=O)/C(=N/OC)c1ccccc1CON=C(C)c1cccc(OC(F)=Cc2ccccc2)c1 tested_target="Rhizoctonia solani AG-1" quantitative_result=57
compound_structure=CON=C(C(=O)OC)c1ccccc1CON=C(C)c1cccc(OC(F)=Cc2cccc(C)c2)c1 tested_target="Rhizoctonia solani AG-1" quantitative_result=60
compound_structure=CON=C(C(=O)OC)c1ccccc1CON=Cc1cccc(OC(F)=Cc2ccccc2)c1 tested_target="Rhizoctonia solani AG-1" quantitative_result=72
compound_structure=CO/N=C(/C(=O)OC)c1ccccc1CON=C(C)c1cccc(OC(F)=Cc2ccccc2)c1 tested_target="Rhizoctonia solani AG-1" quantitative_result=65

Ask: GET /values?readout=RSB (Fungicidal Activities, C.V.)&item= COC=C(C(=O)OC)c1ccccc1CON=C(C)c1cccc(OC(F)=C(c2ccccc2)C(F)(F)F)c1
Result: 65

Ask: Quick one: RSB (Fungicidal Activities, C.V.) for CON=C(C(=O)OC)c1ccccc1CON=C(C)c1cccc(OC(F)=Cc2ccc(C)cc2)c1 ?
Result: 65
